Tested on: SF-295
assay_protocol: Cytotoxicity against human SF295 cells after 48 hrs by SRB assay
Assay type: functional
study_conditions: SF-295, 48 h
observable: GI50 (nM)
Numbers only here, please. The scale is nM.

{"chem_smiles": "CN1C(=O)C(=Cc2cn(Cc3ccc(Cl)cc3)c3ccccc23)C(=O)N(C)C1=O", "GI50 (nM)": 1210}
{"chem_smiles": "COc1ccc(Cn2cc(C=C3C(=O)N(C)C(=O)N(C)C3=O)c3ccccc32)cc1", "GI50 (nM)": 1540}
{"chem_smiles": "Cc1ccc(Cn2cc(C=C3C(=O)N(C)C(=O)N(C)C3=O)c3ccccc32)cc1", "GI50 (nM)": 2020}

Now for the compound whose GI50 we want.
Problem: // fetch GI50; item: CN1C(=O)C(=Cc2cn(Cc3ccc(F)cc3)c3ccccc23)C(=O)N(C)C1=O ; system: SF-295
Result: 1970
